- measurementTarget: RUNX1 (UniProt Q01196)
- Sequence (Q01196 whole entry): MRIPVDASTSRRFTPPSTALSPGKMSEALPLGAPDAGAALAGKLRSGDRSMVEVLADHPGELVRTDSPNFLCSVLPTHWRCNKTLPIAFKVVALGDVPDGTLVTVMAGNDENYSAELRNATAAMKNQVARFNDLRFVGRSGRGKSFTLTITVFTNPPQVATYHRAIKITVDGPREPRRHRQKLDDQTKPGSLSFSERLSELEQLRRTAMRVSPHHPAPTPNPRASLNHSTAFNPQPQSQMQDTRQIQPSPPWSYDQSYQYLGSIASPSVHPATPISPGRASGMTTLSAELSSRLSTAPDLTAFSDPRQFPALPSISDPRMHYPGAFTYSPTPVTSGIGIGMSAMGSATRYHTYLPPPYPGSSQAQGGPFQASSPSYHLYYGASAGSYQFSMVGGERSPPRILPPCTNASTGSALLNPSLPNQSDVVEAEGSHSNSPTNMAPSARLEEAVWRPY
- procedureSummary: RUNX1 binding intensity (PBM fluorescence), RUNX1 alone (arbitrary fluorescence units); higher = stronger binding
- measurementParameters: RUNX1 concentration 2 nM; ETS1 concentration 0 nM
measuredMetric: RUNX1 binding intensity

| orderedResidues | observed |
| --- | --- |
| GCGGAGGGAAGCGGAAATACTTGCGGTGGGGGCGAC | 898 |
| TACCTACATCCTGCCACCACCCGAGGGGACCGCAAG | 1050 |
| CCAACGAGCACTTCCGCTTCCCGCAGCTCCAGCGGC | 914 |
| TGCACGGTAAGCAGGAAGCTGCGGCCGAGCTGAGTC | 687 |
| GGGGGAGTTTTCGGAAGCGCTAACCGCGTTGGGGCC | 860 |
| AGGTTCGTGGCAGGAAAGTTTGTGGCAGCAAAGCCT | 1190 |
| GCCACACAGGCAGGAAAGCCACAGCCCACGTCTCCG | 867 |
| TCAAGAAAACAGGAAACTCTCAAAACCAAGTTCTGA | 773 |
| ACCTGTAGGCGGAAGTCTGTGGCTTTATTTACACAG | 792 |
| GAGCGGAAACCCGAGAGTCAGTTCAACCACAGCCAC | 889 |
| CCCACCCTCGCCGGAAGCCGAGCGGTTTCTACATCA | 1110 |
| CGACAGAGGACACTTCCTTTTGCGGGTGGCGGCGAA | 697 |

----------
Overview of reported RUNX1 binding intensity across a group of sequences:
- measurementTarget: RUNX1 (UniProt Q01196)
- procedureSummary: RUNX1 binding intensity (PBM fluorescence) in presence of ETS1, normalised to RUNX1-only experiment (arbitrary fluorescence units); higher = stronger binding
- measurementParameters: RUNX1 concentration 2 nM; ETS1 concentration 25 nM

| orderedResidues | RUNX1 binding intensity |
| --- | --- |
| GGGGAAAGGAAGAGGAAACCGCGAGTGCAAAGGCCC | 2330 |
| TACAATTCGCACCGGAACTTGCGGCCCGGCTTCATT | 963 |
| TCAGAACCAGGAAACTGAAGGCGGTTACTCCACATA | 875 |
| CAGCACGCAGGAAGCACATGTGGTGGGGCTCTTCCA | 1030 |
| CCCACCCAGGAAGCCGTCCTAACCACAACAGCCCTC | 6790 |
| AACCTCCGACTTCCGGCCGCGCAGCGGTGGGCTGAG | 1970 |
| GTAAATAAAGAGGAAGTCCCTATGCGGGGGATGGGG | 884 |
| TCCAAGGCGGAAAAAACCCGCCCTAAACCGCACCCC | 1460 |
| CGCCGAACTTCCGGCAGTAAATTCCGTGGTTTCCCT | 2400 |
| ATTTTAGCATTTTCCTGCTCGGAGACCACATGTTTG | 1220 |
| CCCATTTCCGAGAGTGGCAGGGCTGGGCGCGGTGGG | 1420 |
| GATACAGTGCTCAGGAAACCACATGAAACCAGAGTA | 972 |
| TGGCAGCGGGTGCGGAAACCACAGGCCTCCAGGCTT | 2470 |
| CCCGGCCCAGGAAACTTCAGACTTCACCGCAGCTTC | 1030 |
| TAAGAGATTTCCTGTAAAGGTAACCACCAGCAAAGA | 1230 |
| GGACTTCCTGAAGCCAGATCGGTTTACCACAGTCAG | 1860 |
| CCGCGCCGCTTCCTCCAGACACCGCAAGGGGGTGCT | 1660 |
| GGAACAGGAAGCGGCAGAAATAGCAGCCACCGCGGC | 1310 |
| GTGCTAGGACACAGGAAGCGATACCACAAAGAACAT | 1790 |
| GTTTCTCTGGCCAGGAAATTGAGGTTTCTGTTAGTC | 1660 |
| GCCCGCGGCTCCGGAAGCGGCTGCGGCCCCGACCGG | 1040 |
| AGTACGATGGGAGGAAGTGGTTTGTAAGAGGAGGAC | 1490 |
| ACCAGAACAGGAAATGTTAGTGGTTGAGTTAACGGT | 1260 |
| GAGGACTTCCGGGTGCGTGTGATATCTGCGGGCCCG | 2110 |
| ACCTTCTGTTCCCTTCCTCAGACCGCAGGCGAGATG | 2230 |

src = the supplement of paper PMC10681739
